Sourced from BindingDB's records for doi:10.1016/j.bioorg.2015.06.003

# tgt: P2X purinoceptor 7 (Homo sapiens)
# Sequence (Q99572 whole entry): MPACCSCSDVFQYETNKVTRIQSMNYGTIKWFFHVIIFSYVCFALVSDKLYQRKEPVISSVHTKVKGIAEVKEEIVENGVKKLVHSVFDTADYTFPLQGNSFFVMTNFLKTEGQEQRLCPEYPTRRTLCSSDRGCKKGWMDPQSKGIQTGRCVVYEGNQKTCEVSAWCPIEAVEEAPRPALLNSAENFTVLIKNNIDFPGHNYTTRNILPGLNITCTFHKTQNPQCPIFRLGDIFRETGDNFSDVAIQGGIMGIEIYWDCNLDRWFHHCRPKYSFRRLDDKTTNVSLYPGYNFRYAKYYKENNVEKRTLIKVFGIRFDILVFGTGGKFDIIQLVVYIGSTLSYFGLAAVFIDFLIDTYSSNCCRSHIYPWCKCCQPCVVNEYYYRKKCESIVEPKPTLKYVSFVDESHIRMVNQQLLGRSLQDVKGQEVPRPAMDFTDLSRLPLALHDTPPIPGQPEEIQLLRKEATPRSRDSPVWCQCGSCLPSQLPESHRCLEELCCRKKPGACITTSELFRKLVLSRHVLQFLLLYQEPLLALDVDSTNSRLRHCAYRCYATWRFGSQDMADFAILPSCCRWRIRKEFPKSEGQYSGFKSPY
# protocol_text: Ethidium Bromide Uptake Assay
# cond: pH 7.4
readout_label: pIC50
pIC50 (log units): -log10 of the concentration in mol/L.

Please review the entries below; each comes with its answer.
cpd_smiles=CC12CC3CC(C)(C1)CC(C(=O)NNc1ccc4ccccc4n1)(C3)C2 readout_label=pIC50 numeric_result=5.54
cpd_smiles=CC12CC3CC(C)(C1)CC(C(=O)NNc1nc(Cl)nc4nc[nH]c14)(C3)C2 readout_label=pIC50 numeric_result=6.75

q: Give a short answer stating reported pIC50 for "CC12CC3CC(C)(C1)CC(C(=O)NNc1cnc4ccccc4c1)(C3)C2" .
a: 5.43

q: Give a short answer stating reported pIC50 for "CC12CC3CC(C)(C1)CC(C(=O)NNc1ncnc4ccccc14)(C3)C2" .
a: 5.26

q: Give a short answer stating reported pIC50 for "CC12CC3CC(C)(C1)CC(C(=O)NNc1ncnc4nc[nH]c14)(C3)C2" .
a: 5.54

q: Give a short answer stating reported pIC50 for "CC12CC3CC(C)(C1)CC(C(=O)NNc1ccnc4c(Cl)cccc14)(C3)C2" .
a: 5.96

q: Give a short answer stating reported pIC50 for "CC12CC3CC(C)(C1)CC(C(=O)NNc1ccnc4ccccc14)(C3)C2" .
a: 6.14
